target: Pax6 DNA-binding domain (BD-Pax6) (Mus musculus (B6), UniProt P63015 190-289); assay: EMSA; 10% glycerol, 20 mM HEPES pH 7.8, 45 mM KCl, 10 mM NaCl, 1 mM EDTA, 1 mM DTT, 0.2 ug/uL BSA, 0.1% NP-40, 50 ng poly-dIdC; 20 ng each GST protein; room temperature 30 min (heterodimers 4 C); 6% PAGE 0.25x TBE; settings: protein: recombinant; tags: GST (N-terminal, pGEX-6P-1); label: 32P-dCTP fill-in of the 5' (dG)5 overhangs of both strands (Methods; control probes are given with GGG)
Sequence (P63015 190-289): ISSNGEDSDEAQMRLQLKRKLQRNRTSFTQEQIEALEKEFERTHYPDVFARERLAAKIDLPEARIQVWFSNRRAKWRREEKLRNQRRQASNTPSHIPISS
Assay readout: binding result

Past entries and their recorded results:
[[record]]
binder = "68 (dsDNA) DNA 1: GGGGGTTTGTTTGTTTGTTTAAAGGATTTATTTATTTATCCCCC DNA 2: GGGGGATAAATAAATAAATCCTTTAAACAAACAAACAAACCCCC"
assay_readout = "binding result"
recorded_value = "binds"

[[record]]
binder = "102a (dsDNA) DNA 1: GGGGGGGATCCCCACAATACAAAAAAAACAAAAACAAAACCCCCC DNA 2: GGGGGGTTTTGTTTTTGTTTTTTTTGTATTGTGGGGATCCCCCCC"
assay_readout = "binding result"
recorded_value = "no binding"

[[record]]
binder = "81 (dsDNA) DNA 1: GGGGGAGAGTGCTGGTATTAAAAGGCACAAACTTTCTTTCCCCC DNA 2: GGGGGAAAGAAAGTTTGTGCCTTTTAATACCAGCACTCTCCCCC"
assay_readout = "binding result"
recorded_value = "no binding"

[[record]]
binder = "11 (dsDNA) DNA 1: GGGGGGTGGGGTACAAAAATGGCCCTTTGTGATCAACTCCCCC DNA 2: GGGGGAGTTGATCACAAAGGGCCATTTTTGTACCCCACCCCCC"
assay_readout = "binding result"
recorded_value = "no binding"

[[record]]
binder = "124 (dsDNA) DNA 1: GGGGGCTTATGCTTCTATTCTACACAATTCCACAACCCCCC DNA 2: GGGGGGTTGTGGAATTGTGTAGAATAGAAGCATAAGCCCCC"
assay_readout = "binding result"
recorded_value = "no binding"


Reported binding result, binder 63 (dsDNA) DNA 1: GGGGGAGAAATCCTCAATTTCCTTATCCACAAAATGGACATTTTCCTAGTACCTCCCCC DNA 2: GGGGGAGGTACTAGGAAAATGTCCATTTTGTGGATAAGGAAATTGAGGATTTCTCCCCC : ____ binds

Follow-up item: 49 (dsDNA) DNA 1: GGGGGCTCTCTGATTTGTGAGTATTGACAGAGAATCCCCC DNA 2: GGGGGATTCTCTGTCAATACTCACAAATCAGAGAGCCCCC no binding

Follow-up item: 64 (dsDNA) DNA 1: GGGGGATATATGCACAAACACTCATTTACATAAAATAACCCCC DNA 2: GGGGGTTATTTTATGTAAATGAGTGTTTGTGCATATATCCCCC binds

Follow-up item: 62 (dsDNA) DNA 1: GGGGGTTTAAACAATTGTCCCATTCATTATATTGCAACACCCCC DNA 2: GGGGGTGTTGCAATATAATGAATGGGACAATTGTTTAAACCCCC binds
